The reported numbers originate from ChEMBL document CHEMBL1156987.

- System: Streptococcus pneumoniae
- Assay Text: Antibacterial activity against Streptococcus pneumoniae 7 expressing constitutive ermB methylase after 20 hrs by agar dilution method
- Assay type: functional
- Recorded Conditions: Streptococcus pneumoniae, 7, 20 h
Readout Kind: MIC (µg/mL)
Numbers only, in µg/mL.

These solved cases illustrate the format of a correct answer.
INSERT INTO assay_data (smiles_entry, tested_system, readout_kind, units_label, experimental_value) VALUES
  ('CCC(=O)O[C@@H]1CC(=O)O[C@@H](C/C=C/c2cnc3ccccc3c2)CCCN(C)C[C@H](O)[C@H](C)C[C@H](CC=O)[C@H](O[C@@H]2O[C@H](C)[C@@H](O[C@H]3C[C@@](C)(OC(=O)CC)[C@@H](OC(=O)NCCO)[C@H](C)O3)[C@H](N(C)C)[C@H]2O)[C@H]1OC', 'Streptococcus pneumoniae', 'MIC', 'µg/mL', 32),
  ('CCC(=O)O[C@@H]1CC(=O)O[C@@H](C/C=C/c2cnc3ccccc3c2)CCCN(C)C[C@H](O)[C@H](C)C[C@H](CC=O)[C@H](O[C@@H]2O[C@H](C)[C@@H](O[C@H]3C[C@@](C)(OC(=O)CC)[C@@H](OC(=O)NC(C)C)[C@H](C)O3)[C@H](N(C)C)[C@H]2O)[C@H]1OC', 'Streptococcus pneumoniae', 'MIC', 'µg/mL', 16);

Okay, now this compound:
Given CCNC(=O)O[C@H]1[C@H](C)O[C@@H](O[C@H]2[C@H](N(C)C)[C@@H](O)[C@H](O[C@H]3[C@@H](CC=O)C[C@@H](C)[C@@H](O)CN(C)CCC[C@H](C/C=C/c4cnc5ccccc5c4)OC(=O)C[C@@H](O)[C@@H]3OC)O[C@@H]2C)C[C@@]1(C)OC(=O)CC , state its recorded MIC.
4

----------
- Test system: Streptococcus pneumoniae
- Assay Text: Antibacterial activity against Streptococcus pneumoniae 7 expressing constitutive ermB methylase after 20 hrs by agar dilution method
- Assay type: functional
- Recorded Conditions: Streptococcus pneumoniae, 7, 20 h
Readout Kind: MIC (µg/mL)
Numbers only, in µg/mL.

INSERT INTO measurements (smiles_entry, readout_kind, units_label, experimental_value) VALUES
  ('CCNC(=O)O[C@H]1[C@H](C)O[C@@H](O[C@H]2[C@H](N(C)C)[C@@H](O)[C@H](O[C@H]3[C@@H](CC=O)C[C@@H](C)[C@@H](O)CN(C)CCC[C@H](C/C=C/c4ccc(N)nc4)OC(=O)C[C@@H](O)[C@@H]3OC)O[C@@H]2C)C[C@@]1(C)OC(=O)CC', 'MIC', 'µg/mL', 4);

Okay, now this molecule:
Given CCNC(=O)O[C@H]1[C@H](C)O[C@@H](O[C@H]2[C@H](N(C)C)[C@@H](O)[C@H](O[C@H]3[C@@H](CC=O)C[C@@H](C)[C@@H](O)CN(C)CCC[C@H](C/C=C/c4ccc5ccccc5c4)OC(=O)C[C@@H](OC(=O)CC)[C@@H]3OC)O[C@@H]2C)C[C@@]1(C)OC(=O)CC , state its recorded MIC.
32

----------
- System: Streptococcus pyogenes
- Assay Text: Antibacterial activity against Streptococcus pyogenes 3 expressing mefA efflux pump after 20 hrs by agar dilution method
- Format: functional
- Recorded Conditions: Streptococcus pyogenes, 3, 20 h
Consider the following compounds; for each one, report its MIC.
Give bare numbers, in µg/mL.

These solved cases illustrate the format of a correct answer.
INSERT INTO results (smiles_entry, readout_kind, units_label, experimental_value) VALUES
  ('CCNC(=O)O[C@H]1[C@H](C)O[C@@H](O[C@H]2[C@H](N(C)C)[C@@H](O)[C@H](O[C@H]3[C@@H](CC=O)C[C@@H](C)[C@@H](O)CN(C)CCC[C@H](C/C=C/c4cncc5ccccc45)OC(=O)C[C@@H](O)[C@@H]3OC)O[C@@H]2C)C[C@@]1(C)OC(=O)CC', 'MIC', 'µg/mL', 0.13),
  ('CCNC(=O)O[C@H]1[C@H](C)O[C@@H](O[C@H]2[C@H](N(C)C)[C@@H](O)[C@H](O[C@H]3[C@@H](CC=O)C[C@@H](C)[C@@H](O)CN(C)CCC[C@H](C/C=C/c4ccc(N)nc4)OC(=O)C[C@@H](O)[C@@H]3OC)O[C@@H]2C)C[C@@]1(C)OC(=O)CC', 'MIC', 'µg/mL', 0.13);

Okay, now this compound:
Given CCC(=O)O[C@@H]1CC(=O)O[C@H](C)C/C=C/C=C/[C@H](OC(C)=O)[C@H](C)C[C@H](CC=O)[C@H](O[C@@H]2O[C@H](C)[C@@H](O[C@H]3C[C@@](C)(OC(C)=O)[C@@H](OC(=O)CC)[C@H](C)O3)[C@H](N(C)C)[C@H]2O)[C@H]1OC , state its recorded MIC.
0.5

----------
- Assay Text: Metabolic stability at human liver S9 fraction assessed as compound remaining after 1 hr
- Type: ADME, subcellular
- Recorded Conditions: read-out: Stability
Readout Kind: remaining at 1 h (%)
One number for each entry, in %.

List the reported remaining at 1 h of each compound below.
1. CCC(=O)O[C@@H]1CC(=O)O[C@@H](C/C=C/c2cnc3ccccc3c2)CCCN(C)C[C@H](O)[C@H](C)C[C@H](CC=O)[C@H](O[C@@H]2O[C@H](C)[C@@H](O[C@H]3C[C@@](C)(OC(=O)CC)[C@@H](OC(=O)NC)[C@H](C)O3)[C@H](N(C)C)[C@H]2O)[C@H]1OC
2. CCNC(=O)O[C@H]1[C@H](C)O[C@@H](O[C@H]2[C@H](N(C)C)[C@@H](O)[C@H](O[C@H]3[C@@H](CC=O)C[C@@H](C)[C@@H](O)CN(C)CCC[C@H](C/C=C/c4ccc5ccccc5c4)OC(=O)C[C@@H](OC(=O)CC)[C@@H]3OC)O[C@@H]2C)C[C@@]1(C)OC(=O)CC
3. CCC(=O)O[C@@H]1CC(=O)O[C@@H](C/C=C/c2cnc3ccccc3c2)CCCN(C)C[C@H](O)[C@H](C)C[C@H](CC=O)[C@H](O[C@@H]2O[C@H](C)[C@@H](O[C@H]3C[C@@](C)(O)[C@@H](OC(=O)CC)[C@H](C)O3)[C@H](N(C)C)[C@H]2O)[C@H]1OC
4. CCC(=O)O[C@@H]1CC(=O)O[C@H](C)C/C=C/C=C/[C@H](OC(C)=O)[C@H](C)C[C@H](CC=O)[C@H](O[C@@H]2O[C@H](C)[C@@H](O[C@H]3C[C@@](C)(OC(C)=O)[C@@H](OC(=O)CC)[C@H](C)O3)[C@H](N(C)C)[C@H]2O)[C@H]1OC [MIOCAMYCIN]
5. CC[C@H]1OC(=O)[C@H](C)C(=O)[C@H](C)[C@@H](O[C@@H]2O[C@H](C)C[C@H](N(C)C)[C@H]2O)[C@](C)(OC)C[C@@H](C)C(=O)[C@H](C)[C@H]2N(CCCCn3cnc(-c4cccnc4)c3)C(=O)O[C@]12C [TELITHROMYCIN]
6. CCNC(=O)O[C@H]1[C@H](C)O[C@@H](O[C@H]2[C@H](N(C)C)[C@@H](O)[C@H](O[C@H]3[C@@H](CC=O)C[C@@H](C)[C@@H](O)CN(C)CCC[C@H](C/C=C/c4cnc5ccccc5c4)OC(=O)C[C@@H](OC(=O)CC)[C@@H]3OC)O[C@@H]2C)C[C@@]1(C)OC(=O)CC

78
82
28
5.1
84
79

----------
- Test system: Streptococcus pneumoniae
- Assay Text: Antibacterial activity against Streptococcus pneumoniae 7 expressing constitutive ermB methylase after 20 hrs by agar dilution method
- Type: functional
- Recorded Conditions: Streptococcus pneumoniae, 7, 20 h
Consider the following compounds; for each one, report its MIC.
Answers are plain numbers, in µg/mL.

These solved cases illustrate the format of a correct answer.
INSERT INTO assay_data (smiles_entry, tested_system, readout_kind, units_label, experimental_value) VALUES
  ('CCNC(=O)O[C@H]1[C@H](C)O[C@@H](O[C@H]2[C@H](N(C)C)[C@@H](O)[C@H](O[C@H]3[C@@H](CC=O)C[C@@H](C)[C@@H](O)CN(C)CCC[C@H](C/C=C/c4cccnc4)OC(=O)C[C@@H](OC(=O)CC)[C@@H]3OC)O[C@@H]2C)C[C@@]1(C)OC(=O)CC', 'Streptococcus pneumoniae', 'MIC', 'µg/mL', 32),
  ('CCNC(=O)O[C@H]1[C@H](C)O[C@@H](O[C@H]2[C@H](N(C)C)[C@@H](O)[C@H](O[C@H]3[C@@H](CC=O)C[C@@H](C)[C@@H](O)CN(C)CCC[C@H](C/C=C/c4cnc(N)c5ccccc45)OC(=O)C[C@@H](O)[C@@H]3OC)O[C@@H]2C)C[C@@]1(C)OC(=O)CC', 'Streptococcus pneumoniae', 'MIC', 'µg/mL', 1),
  ('CCNC(=O)O[C@H]1[C@H](C)O[C@@H](O[C@H]2[C@H](N(C)C)[C@@H](O)[C@H](O[C@H]3[C@@H](CC=O)C[C@@H](C)[C@@H](O)CN(C)CCC[C@H](C/C=C/c4cncc5ccccc45)OC(=O)C[C@@H](OC(=O)CC)[C@@H]3OC)O[C@@H]2C)C[C@@]1(C)OC(=O)CC', 'Streptococcus pneumoniae', 'MIC', 'µg/mL', 8),
  ('CC[C@H]1OC(=O)[C@H](C)C(=O)[C@H](C)[C@@H](O[C@@H]2O[C@H](C)C[C@H](N(C)C)[C@H]2O)[C@](C)(OC)C[C@@H](C)C(=O)[C@H](C)[C@H]2N(CCCCn3cnc(-c4cccnc4)c3)C(=O)O[C@]12C', 'Streptococcus pneumoniae', 'MIC', 'µg/mL', 1);

Okay, now this compound:
Given CCC(=O)O[C@@H]1CC(=O)O[C@@H](C/C=C/c2cnc3ccccc3c2)CCCN(C)C[C@H](O)[C@H](C)C[C@H](CC=O)[C@H](O[C@@H]2O[C@H](C)[C@@H](O[C@H]3C[C@@](C)(O)[C@@H](OC(=O)CC)[C@H](C)O3)[C@H](N(C)C)[C@H]2O)[C@H]1OC , state its recorded MIC.
128
